- Test: Pharmacokinetics, single oral dose study
- Particulars: mouse, whole blood, po, 50 mg/kg
Metric name: half-life

Per the record, CC(=O)C=O [methylglyoxal] has half-life of 2.1 h

---

- Test: Pharmacokinetics, single oral dose study
- Particulars: mouse, whole blood, po, 100 mg/kg
Metric name: CL/F (mL/min/kg)
All answers are understood in mL/min/kg, so give the number only.

Summary for this compound, `CC(=O)C=O` : CL/F is 138

---

- Test: Pharmacokinetics, single oral dose study
- Particulars: mouse, whole blood, po, 100 mg/kg, tmax, mice, single oral dose 100 mg/kg
Metric name: Tmax

Please fill in: Tmax reported for `CC(=O)C=O` = ~4 h

---

- Test: Pharmacokinetics, single oral dose study
- Particulars: mouse, whole blood, po, 200 mg/kg
Metric name: half-life (h)
Response body: numeric value in h, unit text excluded.

The reported value for CC(=O)C=O [methylglyoxal] in terms of half-life is 3.6

---

- Test: Pharmacokinetics, single oral dose study
- Particulars: mouse, whole blood, po, 200 mg/kg
Metric name: Cmax (µM)
All answers are understood in µM, so give the number only.

Cmax reading for CC(=O)C=O [methylglyoxal] : 19.5

---

- Test: Pharmacokinetics, single oral dose study
- Particulars: mouse, whole blood, po, 200 mg/kg, tmax, mice, single oral dose 200 mg/kg
Metric name: Tmax

Recorded result, `CC(=O)C=O` , Tmax: ~4 h

---

- Test: Pharmacokinetics, single oral dose study
- Particulars: mouse, whole blood, po, 100 mg/kg
Metric name: Cmax (µM)
Give a bare numeral; the unit µM is implied.

// sample `CC(=O)C=O` , its Cmax was 18.7

---

- Test: Pharmacokinetics, single oral dose study
- Particulars: mouse, whole blood, po
Metric name: half-life

Looking up `CC(=O)C=O` , I found its half-life recorded as 2.1 to 3.6 h

---

- Test: Pharmacokinetics, repeat oral dose study
- Assay type: in vivo
- Particulars: mouse, whole blood, po, 100 mg/kg, mice, oral 100 mg/kg body wt./day; time after last dose Up to 48 h; read-out: t½ (converted)
Metric name: half-life at 30 days (days)
Write the answer as a number in days, unit excluded.

# half-life at 30 days of CC(=O)C=O [methylglyoxal] = 17

---

- Test: Pharmacokinetics, single oral dose study
- Particulars: mouse, whole blood, po, 50 mg/kg
Metric name: CL/F (mL/min/kg)
Answer in mL/min/kg, number only, no unit symbol.

CL/F in this record for `CC(=O)C=O` : 128

---

- Test: Pharmacokinetics, single oral dose study
- Particulars: mouse, whole blood, po, 50 mg/kg
Metric name: Cmax

Per the record, `CC(=O)C=O` has Cmax of 13.9 µM

---

- Test: Pharmacokinetics, single oral dose study
- Particulars: mouse, whole blood, po, 200 mg/kg
Metric name: CL/F (mL/min/kg)
Please give a number only; it is taken to be in mL/min/kg.

GET /value?item= CC(=O)C=O [methylglyoxal] &field=CL/F returns 259

---

- Test: Pharmacokinetics, single oral dose study
- Particulars: mouse, whole blood, po, 100 mg/kg
Metric name: half-life (h)
// return numeric value only (unit: h, not printed)

The recorded half-life for entry CC(=O)C=O [methylglyoxal] equals 3.5

Each recorded value in this set is attributed to patent US9198896B2.
